TEST TARGET: TRPML1 (Homo sapiens, UniProt Q9GZU1)
Construct: expressed in transfected cells
Sequence (Q9GZU1 whole entry): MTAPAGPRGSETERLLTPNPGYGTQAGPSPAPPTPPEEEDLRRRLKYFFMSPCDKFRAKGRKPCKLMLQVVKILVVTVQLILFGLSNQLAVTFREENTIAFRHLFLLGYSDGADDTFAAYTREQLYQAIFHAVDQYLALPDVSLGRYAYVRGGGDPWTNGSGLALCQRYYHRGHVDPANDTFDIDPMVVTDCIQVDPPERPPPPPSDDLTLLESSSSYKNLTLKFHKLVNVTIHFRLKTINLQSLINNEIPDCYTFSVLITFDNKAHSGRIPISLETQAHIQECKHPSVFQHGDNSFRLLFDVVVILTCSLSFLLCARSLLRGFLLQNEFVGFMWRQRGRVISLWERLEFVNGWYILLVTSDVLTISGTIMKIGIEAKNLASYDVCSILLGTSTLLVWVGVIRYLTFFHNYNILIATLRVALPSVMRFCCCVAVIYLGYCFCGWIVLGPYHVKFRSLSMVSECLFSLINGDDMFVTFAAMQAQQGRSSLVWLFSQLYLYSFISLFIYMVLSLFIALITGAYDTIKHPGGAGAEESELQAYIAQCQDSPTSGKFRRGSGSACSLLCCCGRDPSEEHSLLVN
ASSAY PROCEDURE: Cellular TRPML1 assay (FLIPR TETRA, GCaMP6f calcium read-out)
Type: cell-based
SETUP CONDITIONS: HEK T-REx/GCaMP6f/TRPML1 cells; Ca2+ response over 300 s, normalized to ML-SA1 50 μM; Ca2+ free or Optimem condition not given; read-out: Ec50 (Activity of TRPML1 agonists)
Method: Buffers and reagents • PBS (D-PBS without calcium and magnesium; EuroClone) • Trypsin (Trypsin 0.05%, EDTA 0.02% in PBS; EuroClone) • DMSO (Sigma) • Ca^2+ free Tyrode's buffer: in-house solution (130 mM NaCl, 5 mM KCl, 1 mM MgCl2, 5 mM NaHCO3, 20 mM HEPES in water at pH 7.4; sterile filtered). • Opti-MEM (Gibco) • Agonist: ML-SA1 (Sigma); stock: 60 mM in DMSO, stored at −20° C. • Blocker: ML-SI3 (in house synthesis); stock: 20 mM in DMSO, stored at −20° C. […]
Criterion: EC50 strictly less than 20 µM. Met: 1 (yes). Not met: 0 (no).

- COC(=O)N1CCN(c2ccccc2NS(=O)(=O)c2ccc(S(=O)(=O)N(C)C)cc2)CC1 [Example 52]: 1 (yes)
- CN(C)c1ccccc1NS(=O)(=O)c1ccc(S(=O)(=O)N(C)C)cc1 [Example 3]: 0 (no)
- Cc1ccc(S(=O)(=O)Nc2ccccc2N2CCC(Oc3ccccn3)CC2)cn1 [Example 98]: 1 (yes)
- CCCOC1CCN(c2ccccc2NS(=O)(=O)c2cc(C)sc2C)CC1 [Example 68]: 1 (yes)

Continue with the molecule presented below.
Is EC50 strictly under 20 µM for the entry COC(=O)C1CCN(c2ccccc2NS(=O)(=O)c2ccc(S(=O)(=O)N(C)C)cc2)CC1 [Example 105] ?
1 (yes)
